# TARGET_OR_TEST_SYSTEM: hNav1.7 (Homo sapiens (Human), UniProt Q15858)
# Sequence (Q15858 other isoform, or with tags, fused parts or gaps): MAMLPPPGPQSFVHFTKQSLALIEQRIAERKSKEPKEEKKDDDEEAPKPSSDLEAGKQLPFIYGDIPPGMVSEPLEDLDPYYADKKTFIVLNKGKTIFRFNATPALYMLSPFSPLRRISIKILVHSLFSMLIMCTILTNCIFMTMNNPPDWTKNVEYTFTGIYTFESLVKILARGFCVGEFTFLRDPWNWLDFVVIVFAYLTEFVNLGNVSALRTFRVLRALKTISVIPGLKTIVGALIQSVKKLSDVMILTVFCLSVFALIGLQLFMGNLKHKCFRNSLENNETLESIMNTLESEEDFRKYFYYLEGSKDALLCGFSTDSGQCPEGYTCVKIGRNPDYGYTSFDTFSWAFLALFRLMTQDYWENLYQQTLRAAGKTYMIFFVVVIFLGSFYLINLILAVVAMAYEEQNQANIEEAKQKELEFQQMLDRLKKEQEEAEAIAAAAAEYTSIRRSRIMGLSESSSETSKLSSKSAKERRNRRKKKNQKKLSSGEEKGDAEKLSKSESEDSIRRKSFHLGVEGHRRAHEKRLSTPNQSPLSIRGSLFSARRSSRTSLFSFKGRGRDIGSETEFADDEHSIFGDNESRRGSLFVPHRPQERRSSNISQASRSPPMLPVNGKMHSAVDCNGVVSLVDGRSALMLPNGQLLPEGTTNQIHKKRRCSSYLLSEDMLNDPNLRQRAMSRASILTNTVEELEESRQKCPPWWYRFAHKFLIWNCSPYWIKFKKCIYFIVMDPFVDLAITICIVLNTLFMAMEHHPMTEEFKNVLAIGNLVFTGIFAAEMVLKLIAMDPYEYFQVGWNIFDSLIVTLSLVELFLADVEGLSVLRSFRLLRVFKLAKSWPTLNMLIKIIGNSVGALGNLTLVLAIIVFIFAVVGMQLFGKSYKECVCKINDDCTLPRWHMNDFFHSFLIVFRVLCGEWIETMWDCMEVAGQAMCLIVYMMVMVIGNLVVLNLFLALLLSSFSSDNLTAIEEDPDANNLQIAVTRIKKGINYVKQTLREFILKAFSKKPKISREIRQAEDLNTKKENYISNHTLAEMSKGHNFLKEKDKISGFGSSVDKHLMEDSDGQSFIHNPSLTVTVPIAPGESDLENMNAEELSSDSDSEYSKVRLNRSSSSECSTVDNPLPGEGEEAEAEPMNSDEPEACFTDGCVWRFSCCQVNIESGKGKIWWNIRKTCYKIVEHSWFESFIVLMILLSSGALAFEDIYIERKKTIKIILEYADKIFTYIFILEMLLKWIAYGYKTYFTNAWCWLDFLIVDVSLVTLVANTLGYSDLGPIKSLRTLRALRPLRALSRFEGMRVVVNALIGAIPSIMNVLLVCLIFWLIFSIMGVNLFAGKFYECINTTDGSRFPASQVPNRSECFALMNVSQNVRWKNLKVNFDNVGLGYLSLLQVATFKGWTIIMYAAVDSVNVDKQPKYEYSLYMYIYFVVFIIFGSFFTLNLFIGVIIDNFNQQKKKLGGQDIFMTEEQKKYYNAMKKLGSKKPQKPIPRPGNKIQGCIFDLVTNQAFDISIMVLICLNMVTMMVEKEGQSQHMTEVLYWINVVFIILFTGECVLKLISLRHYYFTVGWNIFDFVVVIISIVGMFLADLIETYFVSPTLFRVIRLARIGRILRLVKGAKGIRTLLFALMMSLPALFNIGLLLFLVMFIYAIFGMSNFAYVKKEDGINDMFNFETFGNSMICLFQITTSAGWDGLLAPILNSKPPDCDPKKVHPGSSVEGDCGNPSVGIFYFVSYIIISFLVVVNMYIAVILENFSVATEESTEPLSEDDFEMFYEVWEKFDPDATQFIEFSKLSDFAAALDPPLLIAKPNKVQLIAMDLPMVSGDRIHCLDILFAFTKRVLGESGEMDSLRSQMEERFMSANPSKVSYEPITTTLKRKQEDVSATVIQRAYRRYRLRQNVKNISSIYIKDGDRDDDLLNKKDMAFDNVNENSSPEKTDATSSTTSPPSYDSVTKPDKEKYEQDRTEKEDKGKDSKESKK
# PROTOCOL_DESCRIPTION: Patch voltage clamp electrophysiology assay (EP), Syncropatch 384PE, CHO cells expressing Nav1.7
# CONDITION_CONTEXT: holding potential −50 mV; 7.5 min compound incubation; read-out: EP SP hNav1.7 EVO (IC50)
Counter-ions that a name gives are not always drawn.

| COMPOUND | IC50 / nM |
| --- | --- |
| CCN(C)[C@]1(CCc2cccc(C(F)(F)F)c2)CCCN(c2cc(F)c(S(=O)(=O)Nc3ccncn3)c(F)c2)C1 (single isomer, unassigned) [Example 79, formate] | 7.56 |
| CN(C)[C@@]1(CCc2cccc(Cl)c2)CCCN(c2cc(F)c(S(=O)(=O)Nc3ccncn3)c(F)c2)C1 (single isomer, unassigned) [Example 90, formate] | 4460 |
| CN[C@@]1(CCc2cccc(C(F)(F)F)c2)CCCN(c2ccc(S(=O)(=O)Nc3ccncn3)c(F)c2)C1 (single isomer, unassigned) [Example 4] | 638 |
| CN(C)[C@]1(CCc2cccc(C(F)(F)F)c2Cl)CCCN(c2cc(F)c(S(=O)(=O)Nc3ccncn3)c(F)c2)C1 (single isomer, unassigned) [Example 41] | 1.07 |
| CN(C)[C@@]1(CCc2ccc(C(F)(F)F)cc2Cl)CCCN(c2cc(F)c(S(=O)(=O)Nc3ccncn3)c(F)c2)C1 (single isomer, unassigned) [Example 56] | 353 |
| CN(C)[C@]1(CCc2cc(C(F)(F)F)ccc2Cl)CCCN(c2cc(F)c(S(=O)(=O)Nc3ccncn3)c(F)c2)C1 (single isomer, unassigned) [Example 33, formate] | 1.89 |
| CN1CC(N(C)[C@@]2(CCc3cccc(C(F)(F)F)c3)CCCN(c3ccc(S(=O)(=O)Nc4ccncn4)c(F)c3)C2)C1 (single isomer, unassigned) [Example 34] | 1.82 |
| CN(C)[C@]1(CCc2cccc(C(F)(F)F)c2)CCCN(c2cc(Cl)c(S(=O)(=O)Nc3ccncn3)c(Cl)c2)C1 (single isomer, unassigned) [Example 65] | 69.4 |
| CN(C)[C@@]1(CCc2ccc(Cl)c(C(F)(F)F)c2)CCCN(c2ccc(S(=O)(=O)Nc3ccncn3)c(F)c2)C1 (single isomer, unassigned) [Example 19] | 60.4 |
| CN(C)[C@@]1(CCc2cccc(C(F)(F)F)c2)CCCN(c2cc(F)c(S(=O)(=O)Nc3ccon3)c(F)c2)C1 (single isomer, unassigned) [Example 58] | 10000 |
| CN[C@]1(CCc2cccc(C(F)(F)F)c2)CCCN(c2ccc(S(=O)(=O)Nc3ccncn3)c(F)c2)C1 [Example 3] | 21.5 |
| CN(C)[C@]1(CCc2ccc(Cl)c(C(F)(F)F)c2)CCCN(c2ccc(S(=O)(=O)Nc3ccncn3)c(F)c2)C1 (single isomer, unassigned) [Example 20, formate] | 2.74 |
| CN1CC[C@H](N(C)[C@@]2(CCc3cccc(C(F)(F)F)c3)CCCN(c3cc(F)c(S(=O)(=O)Nc4ccncn4)c(F)c3)C2)C1 (single isomer, unassigned) [Example 45] | 1.69 |
| O=S(=O)(Nc1ccncn1)c1ccc(N2CCC[C@@](CCc3cccc(C(F)(F)F)c3)(N3CCCC3)C2)cc1F (single isomer, unassigned) [Example 24] | 439 |
| CN1CCC(N(C)[C@@]2(CCc3cccc(C(F)(F)F)c3)CCCN(c3ccc(S(=O)(=O)Nc4ccncn4)c(F)c3)C2)CC1 (single isomer, unassigned) [Example 36] | 2690 |
| CN(CCO)[C@]1(CCc2cccc(C(F)(F)F)c2)CCCN(c2cc(F)c(S(=O)(=O)Nc3ccncn3)c(F)c2)C1 (single isomer, unassigned) [Example 61] | 2.14 |
| CN(C)[C@@]1(CCc2cccc(C(F)(F)F)c2)CCCN(c2cc(F)c(S(=O)(=O)Nc3ccncn3)cc2Cl)C1 (single isomer, unassigned) [Example 11] | 742 |
| CN(C)[C@]1(CCc2ccc(C(F)(F)F)c(Cl)c2)CCCN(c2cc(F)c(S(=O)(=O)Nc3ccncn3)c(F)c2)C1 (single isomer, unassigned) [Example 51] | 1.03 |
| CN(C)[C@@]1(CCc2cccc(C(F)(F)F)c2)CN(c2cc(F)c(S(=O)(=O)Nc3ccncn3)c(F)c2)CC[C@H]1O (single isomer, unassigned) [Example 77, formate] | 2.55 |
| CN(C)[C@]1(CCc2cccc(C(F)(F)F)c2)CCCN(c2ccc(S(=O)(=O)Nc3ccncn3)c(Cl)c2)C1 (single isomer, unassigned) [Example 71, formate] | 560 |
| CN(C)[C@]1(CCc2ccc(C3CC3)c(C(F)(F)F)c2)CCCN(c2cc(F)c(S(=O)(=O)Nc3ccncn3)c(F)c2)C1 (single isomer, unassigned) [Example 87] | 682 |

====

# TARGET_OR_TEST_SYSTEM: hNav1.7 (Homo sapiens (Human))
# PROTOCOL_DESCRIPTION: Patch voltage clamp electrophysiology assay (EP), Syncropatch 384PE, CHO cells expressing Nav1.7
# Assay type: cell-based
# CONDITION_CONTEXT: holding potential −50 mV; 7.5 min compound incubation; read-out: EP SP hNav1.7 EVO (IC50)
pIC50: −log10 of the molar value. Where a name gives a salt, the structure may show the parent alone.
Answer Criterion not met if pIC50 is under 8, and Criterion met if it is 8 or more.

| MOLECULE | CLASS_ASSIGNMENT |
| --- | --- |
| CN1CC[C@@H](N(C)[C@@]2(CCc3cccc(C(F)(F)F)c3)CCCN(c3cc(F)c(S(=O)(=O)Nc4ccncn4)c(F)c3)C2)C1 (single isomer, unassigned) | Criterion not met |
| CN(C)[C@@]1(CCc2cccc(C(F)(F)F)c2)CCCN(c2ccc(S(=O)(=O)Nc3ccncn3)c(Cl)c2)C1 (single isomer, unassigned) | Criterion met |
| CN(C)[C@@]1(CCc2cccc(C(F)(F)F)n2)CCCN(c2cc(F)c(S(=O)(=O)Nc3ccncn3)c(F)c2)C1 [Example 97, formate] | Criterion not met |
| Cc1cc(N2CCC[C@@](CCc3cccc(C(F)(F)F)c3)(N(C)C)C2)ccc1S(=O)(=O)Nc1ccncn1 (single isomer, unassigned) [Example 73, formate] | Criterion not met |
| CN(C)[C@@]1(CCc2cccc(C(F)(F)F)c2)CCCN(c2ccc(S(=O)(=O)Nc3ccncn3)c(F)c2)C1 (single isomer, unassigned) [Example 2, formate] | Criterion not met |
| Cc1cc(N2CCC[C@](CCc3cccc(C(F)(F)F)c3)(N(C)C)C2)cc(F)c1S(=O)(=O)Nc1ccncn1 | Criterion not met |
| CN(C)[C@@]1(CCc2cccc(C(F)(F)F)c2)CN(c2cc(F)c(S(=O)(=O)Nc3ccncn3)c(F)c2)CC[C@@H]1O (single isomer, unassigned) [Example 75, formate] | Criterion met |
| CN(C)[C@@]1(CCc2ccccc2)CCCN(c2ccc(S(=O)(=O)Nc3ccncn3)c(F)c2)C1 (single isomer, unassigned) | Criterion not met |

====

# TARGET_OR_TEST_SYSTEM: hNav1.7 (Homo sapiens (Human), UniProt Q15858)
# PROTOCOL_DESCRIPTION: Patch voltage clamp electrophysiology assay (EP), Syncropatch 384PE, CHO cells expressing Nav1.7
# CONDITION_CONTEXT: holding potential −50 mV; 7.5 min compound incubation; read-out: EP SP hNav1.7 EVO (IC50)
Structures can show the parent of a compound that is named as a salt.

| COMPOUND | TARGET_OR_TEST_SYSTEM | IC50 / nM |
| --- | --- | --- |
| CN(C)[C@@]1(C2CC(c3cccc(C(F)(F)F)c3)C2)CCCN(c2cc(F)c(S(=O)(=O)Nc3ccncn3)c(F)c2)C1 (stereo partly drawn) [Example 94] | hNav1.7 (Homo sapiens (Human), UniProt Q15858) | 127 |
| CN(C)[C@]1(CCc2cccc(C(F)(F)F)c2)CN(c2cc(F)c(S(=O)(=O)Nc3ccncn3)c(F)c2)CC[C@@H]1O (single isomer, unassigned) [Example 76, formate] | hNav1.7 (Homo sapiens (Human), UniProt Q15858) | 30.8 |
| CN(C)[C@]1(C[C@@H]2CCc3ccc(C(F)(F)F)cc32)CCCN(c2cc(F)c(S(=O)(=O)Nc3ccncn3)c(F)c2)C1 [Example 49, formate] | hNav1.7 (Homo sapiens (Human), UniProt Q15858) | 11.1 |
| O=S(=O)(Nc1ccncn1)c1ccc(N2CCC[C@](CCc3cccc(C(F)(F)F)c3)(N3CCCCC3)C2)cc1F (single isomer, unassigned) [Example 25, formate] | hNav1.7 (Homo sapiens (Human), UniProt Q15858) | 312 |
| CN(C)[C@@]1(CCc2cccc(C(F)(F)F)c2)CCCN(c2cc(F)c(S(=O)(=O)Nc3ccncn3)cc2F)C1 (single isomer, unassigned) [Example 38] | hNav1.7 (Homo sapiens (Human), UniProt Q15858) | 28.8 |
| O=S(=O)(Nc1ccncn1)c1ccc(N2CCC[C@](CCc3cccc(C(F)(F)F)c3)(N3CCCC3)C2)cc1F (single isomer, unassigned) [Example 23] | hNav1.7 (Homo sapiens (Human), UniProt Q15858) | 8.62 |
